MEASURED TARGET: AOC2 (Homo sapiens (Human))
Sequence (O75106 whole entry): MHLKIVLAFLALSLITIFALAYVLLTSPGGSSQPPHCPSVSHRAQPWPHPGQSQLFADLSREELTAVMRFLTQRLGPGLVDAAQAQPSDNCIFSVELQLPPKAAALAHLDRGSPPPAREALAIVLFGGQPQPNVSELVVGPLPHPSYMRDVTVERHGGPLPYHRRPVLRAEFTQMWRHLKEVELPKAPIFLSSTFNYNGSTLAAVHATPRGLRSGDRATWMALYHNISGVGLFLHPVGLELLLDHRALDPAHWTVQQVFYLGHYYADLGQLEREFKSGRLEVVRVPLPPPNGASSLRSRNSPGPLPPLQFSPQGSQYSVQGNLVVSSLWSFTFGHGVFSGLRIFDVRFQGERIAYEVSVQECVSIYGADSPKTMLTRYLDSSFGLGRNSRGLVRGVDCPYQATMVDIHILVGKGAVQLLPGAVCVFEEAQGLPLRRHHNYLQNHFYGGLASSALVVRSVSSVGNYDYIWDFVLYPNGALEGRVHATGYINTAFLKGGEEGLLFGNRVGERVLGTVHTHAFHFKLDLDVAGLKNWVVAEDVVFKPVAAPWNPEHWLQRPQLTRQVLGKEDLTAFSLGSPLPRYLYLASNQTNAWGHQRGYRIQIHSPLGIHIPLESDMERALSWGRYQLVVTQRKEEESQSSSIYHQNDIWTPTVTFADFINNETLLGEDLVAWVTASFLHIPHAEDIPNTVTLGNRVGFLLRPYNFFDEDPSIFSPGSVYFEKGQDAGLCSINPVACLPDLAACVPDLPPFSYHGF
ASSAY OVERVIEW: AOC2 biochemical assay (Amplex Red)
TEST SETTINGS: comparison table; read-out: IC50 AOC2
The label Criterion met is reserved for IC50 strictly under 500 nM; Criterion not met covers values equal to or above it.

Answered examples (4):
[[record]]
compound = "COC1CCN(S(=O)(=O)c2ccc(OC/C(=C/F)CN)nc2)C1.O=C(O)C(F)(F)F (stereo not drawn)"
measured_target = "AOC2 (Homo sapiens (Human))"
class_assignment = "Criterion met"

[[record]]
compound = "CN(C)S(=O)(=O)c1ccc(OC/C(=C/F)CN)cc1 [Compound 14 of WO 2013/163675, reference compound]"
measured_target = "AOC2 (Homo sapiens (Human))"
class_assignment = "Criterion not met"

[[record]]
compound = "NC/C(=C\\F)COc1cnc(N2CC[C@H](O)C2)nc1 [Example 6 of WO 2018/027892, reference compound]"
measured_target = "AOC2 (Homo sapiens (Human))"
class_assignment = "Criterion not met"

[[record]]
compound = "COC1CN(S(=O)(=O)c2ccc(OC/C(=C/F)CN)cc2)C1 [Reference compound A, reference compound]"
measured_target = "AOC2 (Homo sapiens (Human))"
class_assignment = "Criterion met"


Does `COC1CN(S(=O)(=O)c2ccc(OC/C(=C/F)CN)nc2)C1` have IC50 strictly under 500 nM? Criterion met
